# Assay summary: label from the status in PepcDB records;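 further: failed if final PepcDB status was selected cloned or expressed and not failed if soluble or beyond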
Readout label: protein production

MSAKSKQYFNIFVFIISLIFFDQLSKYLVAKYVKLGSIYFSFFDDFFRIIHVRNTGILFSMGSNIHYSLKKIFFLAMPIFILIFVFYLSLKERNCIARISLLLIFSGGVGNVIDRLFRPSGVVDFLDLKFYGIFGLDRWPTFNFADSYVVIGMILFLVYDFFIKRKVLNK = failed
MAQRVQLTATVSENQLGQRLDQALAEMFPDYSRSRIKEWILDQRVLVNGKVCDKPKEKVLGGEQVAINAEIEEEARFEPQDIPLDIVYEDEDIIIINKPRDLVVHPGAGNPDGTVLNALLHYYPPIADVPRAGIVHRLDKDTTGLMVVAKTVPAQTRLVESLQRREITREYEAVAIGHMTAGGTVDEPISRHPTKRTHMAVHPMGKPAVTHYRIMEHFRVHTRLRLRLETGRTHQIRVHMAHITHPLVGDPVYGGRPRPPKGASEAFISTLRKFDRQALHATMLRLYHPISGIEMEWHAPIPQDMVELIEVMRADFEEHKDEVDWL = not failed
KLGMKPVSDVSRVTIKRAKNVLFVISKPDVYKSPNAETYVIFGEAKVDDLSSQLQTQAAQRFKMPDVTSMLPNAGSEATMAPLAEEEDEDDVDDTGVEARDIDLVMTQAGVSKAKAVSALKANDGDIVSAIMELTT = failed
MPANPRILETMSQLFVSFPHCATLGFEYVGTDGRKPTLKLQWREDLVGNPATGILHGGVITSLVDTCSAIAVTAHLPELETIATLDLRIDYLKSATPGKAIHCTAECYRLASQIAFTRAVCYHDNPADPIAHGVATFMRESSLEHHHHHH = failed
MVPCWNHGNITRSKAEELLSRTGKDGSFLVRASESISRAYALCVLYRNCVYTYRILPNEDDKFTVQASEGVSMRFFTKLDQLIEFYKKENMGLVTHLQYPVPLEEEDTGDDPEEDTVESVVSPPELPPRNIPLTASSCEAKEVPFSNENPRATETSRPSLSETLFQRLQSMDTSGLPEEHLKAIQDYLSTQLAQDSEFVKTGSSSLPHLKKLTTLLCKELYGEVIRTLPSLESLQRLFDQQLSPGLRPRPQVKG = not failed
MEHIEIRVSATGSMSSFHALCSFHQWPINVACSCWLSHCYRIYSLYPPQLVSCSDRLSTSGNTNAGAEFVTE = failed
MRRSGAASRPASRGARTAYIGAMSRSTPPATTRIVCIRHGESTFNAHHEATGRDPGHIDARLSERGHAQVAAARAALRAIPFELVVTSPLTRALQTTAGIFSDHPARPDVLVEVLHRECQESSCDIGRAASVLAQEFPAFKVGHLPETWWYADGEAGPDGWHVEPRTLFDQRVSGFRDWLRARPERTIGVVGHCTFFYHLTGRWLANCEALDVDLTAEPRPRAYG = failed
MTPLLTAYLQAWKQYFDFSGQTTRDDFWWFMLAHLLITLVVVSIEIATNNPGWLDLFYSLISFIPMLAILVRRLHDTQRSGWWAWLFVIPVIGPFWLIYLLVQPSSSHFTDKALLS = failed
MGGDARRALFVPAPSPTLHRMLPDALRDTLEERLDATIESVASVRGGCIANACRLETDAAPFFLKHGPDEVARTFPGEAAGLEALGAADSPLVVPSVHDTAPATDDRPGFLVMEWVNPGREGRRFWDRFGEGLAALHRHTADAYGFGQDNFIGRLPQSNAWTDDWPTFFREQRLAPQVDMARERGRWRDGWGTALTTLYRRLPDILPRSPEPSVLHGDLWKGNYLVTAVGDPALVDPATYYGHREADLAMTELFGGYDDRFYDAYRSAWGLAPEYGTRRDVYNLYHLINHLNLFGGGYAAQVEDTLRPFK = failed
MIRFYMSLSVVKHTILYLCFIFLLLYLKKRYPDNVIIGFFLKIRWCFINSMLHLHFIAIWIAGYRNRCSNSSWNFGYFGCCVETQAKVGRTATNLLLTES = failed
MPTPGTGSVPELQLVPFQLGHFPILQRWFATEKELVQWAGPALRHPLSLEQMHEDLAESRRRPPLRLLWSACRDDQVIGHCQLLFDRRNGVVRLARIVLAPSARGQGLGLPMLEALLAEAFADADIERVELNVYDWNAAARHLYRRAGFREEGLRRSATRVGRERWNVVLMGLLRQEWAAGGAGND = not failed
MMRQPRARTMTMRDDIRDLPANDDRMTRFLGGSPMAVAFRLILMSILVGVVLAAIGLDPWNIITSIRLLFERIWDLGFDAINGLWRYFLLGAVIVIPIWLLTRLASTPRGR = failed
MPNRKASRNAYYFFVQEKIPELRRRGLPVARVADAIPYCSSDWALLREEEKEKYAEMAREWRAAQGKDPGPSEKQKPVFT = not failed
MNKALIVILSTVALDAIGAGLIFPILPDILVEVTGGGDIGFLYGVMLGVFAVMQFVFSPILGALSDRFGRRPVLLLSLAGTLLDYLVMAFSPLGWVLVVGRAMAGITSANMAVASAYITDITPAEQRAQRFGTVGAVMSLGFIIGPVIGGVIGAWWLRAPFLVAALFNGLNLFVALFVLPESRKAGPGKFAFKELNPLAPLVWLWNFKPLLPLVTVSVVFGLVAAIPGTIWVLYGAERFGWDSVHMGLSLSVFGVSGALAQAFLVGPLSRRFGDLGTLMIGVGFDMLAYMLMAFANQSWMGYAVAPLFALGGVAMPALQSLVTSRVSDDQQGQLQGVLASLMSLAGIIGPVLTTAVFFSTKSIWIGTIWLVGAALYLLALPLFATVKTPKAVAA = failed
MLNDGVYLAQARGMAGFVHAKLTVKDNKIVGVDLDLTTETPENKPKVEQQLKKEILTRQSADIDAVSGATFTSNGVKEAVQQTLKQAEKLEHHHHHH = not failed
